Biological target: RAR alpha (Homo sapiens, UniProt P10276)
Construct: It drives the ERE-βGlob-Luc reporter
Sequence (P10276 183-417 limits assumed): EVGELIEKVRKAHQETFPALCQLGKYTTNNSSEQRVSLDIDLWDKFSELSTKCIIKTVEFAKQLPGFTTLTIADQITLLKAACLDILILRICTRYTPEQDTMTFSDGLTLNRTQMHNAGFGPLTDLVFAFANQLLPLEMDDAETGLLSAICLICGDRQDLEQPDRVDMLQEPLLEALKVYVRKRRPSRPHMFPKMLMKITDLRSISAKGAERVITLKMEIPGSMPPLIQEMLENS
Test: Transactivation test (luciferase reporter, apparent Kd by Schild regression against a reference antagonist), RAR alpha
Conditions: HeLa stable transfectants, ERE-βGlob-Luc reporter, read-out: RAR alpha Kdapp
testReadout: Kd (nM)
Report the value in nM with no unit label.

CC1(C)CCC(C)(C)c2cc(-c3cc(-c4ccc(C(=O)O)cc4)ccc3CC(O)CO)ccc21 (centres unmarked) [Example 2]: 60

# input for lookup
Supply recorded Kd for CC1(C)CCC(C)(C)c2cc(-c3cc(-c4ccc(C(=O)O)cc4)ccc3CCCO)ccc21 [Example 1] here. 15
